Tested on: OVCAR-5 ovarian
Experiment: NCI tumour cell line growth inhibition, 48 h; in the data active = GI50 below about 0.43 µM; inactive = the rest
Give your call using only these classes: active, inactive

I would be grateful if you could indicate the recorded call for COc1cc(C(=O)NC2CCN(C)CC2)c(F)cc1Nc1ncc2c(n1)N(C1CCCC1)CC(F)(F)C(=O)N2C .
active

I would be grateful if you could indicate the recorded call for Cc1cc(N2CCCC2)nc(N(CCNc2ccnc3cc(Cl)ccc23)Cc2ccco2)n1 .
inactive

I would be grateful if you could indicate the recorded call for Cc1ccc(S(=O)(=O)Nc2cccc3[nH]c(C(F)(F)F)nc23)cc1 .
inactive

I would be grateful if you could indicate the recorded call for Cc1ccc(CNc2c3ccccc3nc3cc(NC(=O)CCN4CCCC4)ccc23)cc1 .
inactive

I would be grateful if you could indicate the recorded call for COc1cccc(-n2ncc3c(N/N=C/c4ccncc4)ncnc32)c1 .
inactive

I would be grateful if you could indicate the recorded call for C1CN(SSN2CCOCC2)CCO1 .
inactive

I would be grateful if you could indicate the recorded call for COc1ccc2c(c1)C(=O)c1c-2c(N(C)C)nc2ccccc12 .
inactive

I would be grateful if you could indicate the recorded call for O=C(Nc1cccc(NC(=O)Nc2cc(C(F)(F)F)ccc2Cl)c1)Nc1cc(C(F)(F)F)ccc1Cl .
inactive

I would be grateful if you could indicate the recorded call for CN(C)c1ccc2c(c1)OC(N)=C(C#N)C2c1ccc2c(c1)CCO2 (stereo not given) .
inactive

I would be grateful if you could indicate the recorded call for O=C1c2ccccc2-c2c1c1ccccc1c(=O)n2CCN1CCOCC1 .
inactive

* * *

System: NCI/ADR-RES ovarian
Assay: NCI tumour cell line growth inhibition, 48 h
Please respond with reported TGI for every item in the list.

Report TGI for COc1c2c(nc3ccccc13)-c1cc3c(c(=O)n1C2)COC(=O)C3(O)CC(=O)N1CCOCC1 (centres undefined) please.
> 48.8 µM

Report TGI for O=c1[nH]nc(-c2ccccc2)n1/N=C/c1cccnc1 please.
> 100 µM

Report TGI for CC1(O)CC(=O)c2c(cc3ccc(-c4c5c(c(O)c6c(O)cccc46)C(=O)CC(C)(O)C5)c(O)c3c2O)C1 (centres undefined) please.
6.63 µM

Report TGI for C=C(CO[Si](C)(C)C(C)(C)C)C(C)=O please.
99.6 µM

Report TGI for CC1(C)[C@@H](OC(N)=O)[C@H]2O[C@H]2[C@]2(CO)[C@H]3CC[C@]4(C)[C@@H](c5ccc(=O)oc5)[C@@H](Cl)C[C@]4(O)C3=CC[C@@H]12 please.
0.0174 µM

Report TGI for NC(=O)c1c(NC(=O)c2ccc3c(c2)OCO3)sc2c1CCC(=O)C2 please.
> 100 µM

Report TGI for COc1ccc(C(=O)c2cc3c(N)c(C(=O)Nc4cccc5ccccc45)sc3nc2C)cc1 please.
> 50 µM

Report TGI for O=c1cc(N2CCN(c3cc(=O)n4ccccc4n3)CC2)oc2ccccc12 please.
> 100 µM

Report TGI for CS[C@]12C(=O)C[C@@]3(C)[C@@H](CC[C@]3(O)C(=O)CO)[C@@H]1CCC1=CC(=O)CC[C@@]12C please.
> 100 µM

* * *

Tested on: RPMI-8226 leukemia
Assay: NCI tumour cell line growth inhibition, 48 h; in the data active = GI50 below about 0.43 µM; inactive = the rest
Give your call using only these classes: active, inactive

I would be grateful if you could indicate the recorded call for Cc1c2c(nn1C)CSCc1cc(n(C)n1)CSc1cc(c3ccccc3c1)OCCCc1c(C(=O)O)n(C)c3c-2c(Cl)ccc13 .
active

I would be grateful if you could indicate the recorded call for C1CN(SSN2CCOCC2)CCO1 .
inactive

I would be grateful if you could indicate the recorded call for Cn1cc(C2=C(c3cccc(OCC(O)CO)c3)C(=O)NC2=O)c2ccccc21 (stereo not given) .
inactive

I would be grateful if you could indicate the recorded call for CC[C@H](CO)Nc1nc(NCc2ccccc2)n2ncc(C(C)C)c2n1 .
inactive

I would be grateful if you could indicate the recorded call for CN(C)c1ccc2c(c1)OC(N)=C(C#N)C2c1ccc2c(c1)CCO2 (stereo not given) .
inactive

I would be grateful if you could indicate the recorded call for NC(=S)N/N=C/c1ncccc1N .
inactive

I would be grateful if you could indicate the recorded call for Nc1[nH]nc2nc(-c3cccs3)cc(C(F)(F)F)c12 .
inactive

I would be grateful if you could indicate the recorded call for Clc1nc(Cl)c2ncn(C/C=C/COc3cccc(OC/C=C/Cn4cnc5c(Cl)nc(Cl)nc54)c3)c2n1 .
inactive

I would be grateful if you could indicate the recorded call for Cc1cc(N2CCCC2)nc(N(CCNc2ccnc3cc(Cl)ccc23)Cc2ccco2)n1 .
inactive

I would be grateful if you could indicate the recorded call for CCc1ccc(NC(=O)COC(=O)c2cc([N+](=O)[O-])ccc2Sc2nnnn2C)cc1 .
inactive

* * *

Tested on: OVCAR-3 ovarian
Experiment: NCI tumour cell line growth inhibition, 48 h
Test Readout: TGI

Any idea what TGI came out for CSc1n[nH]c(N)c1C(=O)Nc1ccc(C)cc1 on OVCAR-3 ovarian?
> 100 µM

Any idea what TGI came out for Cc1cn(Cc2cnnn2CC2OC(n3cc(C)c(=O)[nH]c3=O)CC2O)c(=O)[nH]c1=O (stereo not given) on OVCAR-3 ovarian?
> 100 µM

Any idea what TGI came out for O=c1nc2oc3ccc4ccccc4c3cc-2s1 on OVCAR-3 ovarian?
> 23.7 µM

Any idea what TGI came out for CCOC(=O)c1cnc2oc3ccc(O)cc3c2c1-c1ccccc1 on OVCAR-3 ovarian?
> 100 µM

Any idea what TGI came out for Cc1c(NC(=O)CSC(=S)N2CCN(Cc3ccccc3)CC2)c(=O)n(-c2ccccc2)n1C on OVCAR-3 ovarian?
> 100 µM

Any idea what TGI came out for CCOC(=O)NC(=O)c1cn(CCCCCCOC(=O)NCCCCCCNC(=O)OCCCCCCn2cc(C(=O)NC(=O)OCC)c(=O)[nH]c2=O)c(=O)[nH]c1=O on OVCAR-3 ovarian?
> 100 µM

Any idea what TGI came out for O=C(O)c1ccn(-c2cccc(-n3ccc(C(=O)O)n3)n2)n1 on OVCAR-3 ovarian?
> 100 µM

Any idea what TGI came out for CCCCCC(C)SC1(C(=O)OC)CC(OC(C)=O)C(NC(C)=O)C([C@H](OC(C)=O)[C@@H](COC(C)=O)OC(C)=O)O1 (stereo not given in full) on OVCAR-3 ovarian?
> 100 µM

Any idea what TGI came out for C=C(C)C(O)C(O)c1c(OC)ccc2ccc(=O)oc12 (stereo not given) on OVCAR-3 ovarian?
> 100 µM

Any idea what TGI came out for S=C1SCN(Cc2ccco2)CN1c1ccc(Br)cc1 on OVCAR-3 ovarian?
21.1 µM

Any idea what TGI came out for O=c1ccn(CC2(CO)CC(Cc3ccccc3)C2)c(=O)[nH]1 (stereo not given) on OVCAR-3 ovarian?
> 100 µM

Any idea what TGI came out for COC(=O)C1=CC2C(=O)OC1CC2C#N (stereo not given) on OVCAR-3 ovarian?
> 100 µM

Any idea what TGI came out for COc1ccc(C(SC2C(O)C(CO)OC2n2ccc(N)nc2=O)(c2ccccc2)c2ccc(OC)cc2)cc1 (stereo not given) on OVCAR-3 ovarian?
48.5 µM

Any idea what TGI came out for O=[N+]([O-])c1cccc([As]=[As]c2cccc([N+](=O)[O-])c2)c1 (stereo not given) on OVCAR-3 ovarian?
0.16 µM

Any idea what TGI came out for COc1ccc(-c2cc(-c3ccc(Nc4ccnc5cc(Cl)ccc45)cc3)[nH]c(=O)c2C#N)c2ccccc12 on OVCAR-3 ovarian?
5.34 µM

Any idea what TGI came out for CC(C)(Oc1ccc(Cl)cc1)C(=O)N(C(=O)N1CCC(c2ccccc2)CC1)c1ccccc1 on OVCAR-3 ovarian?
> 100 µM

Any idea what TGI came out for COc1ccc(-n2c(=O)n(C)c(=O)n2-c2ccc(OC)cc2)cc1 on OVCAR-3 ovarian?
> 100 µM

Any idea what TGI came out for C[C@H]1C[C@H]2[C@@H]3C(C)(C)O[C@]4(O)C(=O)[C@]5(O)[C@@H](C)CC[C@H]1[C@]25C(=O)[C@]34C on OVCAR-3 ovarian?
68.1 µM

Any idea what TGI came out for Nc1[nH]nc2nc(-c3cccs3)cc(C(F)(F)F)c12 on OVCAR-3 ovarian?
> 25 µM

Any idea what TGI came out for C1=C2/CC[C@H](Sc3ccccc3)[C@H]2C2(CCCCC/1)OCCO2 on OVCAR-3 ovarian?
81.7 µM

Any idea what TGI came out for C[Si](C)(C)c1ccc(-c2sc(-c3ccc([Si](C)(C)C)s3)c3c2C[Si]2(C3)Cc3c(-c4ccc([Si](C)(C)C)s4)sc(-c4ccc([Si](C)(C)C)s4)c3C2)s1 on OVCAR-3 ovarian?
> 100 µM

Any idea what TGI came out for CN(C(=O)c1ccco1)C(=S)N1CCN(c2ccccc2)CC1 on OVCAR-3 ovarian?
> 100 µM

Any idea what TGI came out for C[C@@H]1CC[C@H]2C(C(O)CCCCC(O)C3=C(C(F)(F)F)O[C@@H]4O[C@@]5(C)CC[C@H]6[C@H](C)CC[C@@H]3[C@@]46OO5)=C(C(F)(F)F)O[C@@H]3O[C@@]4(C)CC[C@@H]1[C@]32OO4 (stereo not given in full) on OVCAR-3 ovarian?
> 100 µM

Any idea what TGI came out for COc1cc(/C=C2/C[C@H]3[C@@H]4CC=C5C[C@@H](OC(C)=O)CC[C@]5(C)[C@H]4CC[C@]3(C)NC2=O)cc(OC)c1OC on OVCAR-3 ovarian?
> 100 µM

Any idea what TGI came out for NC(=S)N/N=C/c1ncccc1N on OVCAR-3 ovarian?
> 56.6 µM
